organism: Rattus norvegicus; test: Open TG-GATES - Regimen: Single; format: toxicity, organism-based, Sprague-Dawley; set-up: regimen Single, gender Male, age 6 weeks; settings: in vivo, po, 1000 mg/kg, 9 h, tissue Plasma, route gavage, dose level High
Please provide measured TG for the entries that follow.
Numbers only here, please. The scale is mg/dL.

Enquiry: Which TG value belongs to CC(C)OC(=O)C(C)(C)Oc1ccc(C(=O)c2ccc(Cl)cc2)cc1 [FENOFIBRATE] ?
Return: 32.2

Enquiry: Requested field: TG. Item: COc1ccc2[nH]c([S+]([O-])Cc3ncc(C)c(OC)c3C)nc2c1 (stereo not given)
Return: 59.8

Enquiry: Recorded TG of NC(N)=Nc1nc(CSCCC(N)=NS(N)(=O)=O)cs1 , please.
Return: 27.2

Enquiry: # query: TG of entry CCOC(=O)CCC(=O)O[C@H]1[C@H](O[C@@H]2[C@@H](C)[C@H](O[C@H]3C[C@@](C)(OC)[C@@H](O)[C@H](C)O3)[C@@H](C)C(=O)O[C@H](CC)[C@@](C)(O)[C@H](O)[C@@H](C)C(=O)[C@H](C)C[C@@]2(C)O)O[C@H](C)C[C@@H]1N(C)C [ERYTHROMYCIN ETHYLSUCCINATE]
Return: 54.4

Enquiry: Value lookup for TG; key = COC1=CC(=O)C[C@@H](C)[C@]12Oc1c(Cl)c(OC)cc(OC)c1C2=O
Return: 26.8

###

Please respond with reported GLC for every item in the list.
organism: Rattus norvegicus; assay: Open TG-GATES - Regimen: Daily Repeat; assay type: toxicity, organism-based, Sprague-Dawley; parameters: regimen Daily Repeat, gender Male, age 6 weeks; details: in vivo, po, 300 mg/kg, […], tissue Plasma, route gavage, dose level Middle, time 7 day
Answer with a number only, understood to be in mg/dL.

Enquiry: Fill in: GLC of COC1=CC(=O)C[C@@H](C)[C@]12Oc1c(Cl)c(OC)cc(OC)c1C2=O [GRISEOFULVIN] is ___
Return: 207.6

Enquiry: Which value of GLC has been reported for CCOc1ccc(NC(=O)CC(C)O)cc1 (stereo not given) [BUCETIN] in the records?
Return: 190.6

Enquiry: Which GLC value is on record for CCOC(=O)CCC(=O)O[C@H]1[C@H](O[C@@H]2[C@@H](C)[C@H](O[C@H]3C[C@@](C)(OC)[C@@H](O)[C@H](C)O3)[C@@H](C)C(=O)O[C@H](CC)[C@@](C)(O)[C@H](O)[C@@H](C)C(=O)[C@H](C)C[C@@]2(C)O)O[C@H](C)C[C@@H]1N(C)C [ERYTHROMYCIN ETHYLSUCCINATE] ?
Return: 194.6

Enquiry: GLC for COc1ccc2[nH]c([S+]([O-])Cc3ncc(C)c(OC)c3C)nc2c1 (stereo not given) [OMEPRAZOLE] ?
Return: 208.6

Enquiry: May I ask what GLC has been recorded for NC(N)=Nc1nc(CSCCC(N)=NS(N)(=O)=O)cs1 [FAMOTIDINE] ?
Return: 192.8

###

For each record, write down the corresponding DBIL.
species on record: Rattus norvegicus; assay: Open TG-GATES - Regimen: Single; format: toxicity, organism-based, Sprague-Dawley; parameters: regimen Single, gender Male, age 6 weeks; conditions: in vivo, po, 0 mg/kg, 24 h, tissue Plasma, route gavage, dose level Control
Write the numeric value and follow it with the unit.

Enquiry: Return reported DBIL; argument: CC1=C(/C=C/C(C)=C/C=C/C(C)=C/CO)C(C)(C)CCC1
Return: 0.006 mg/dL

Enquiry: Name the recorded DBIL for CCOC(=O)CCC(=O)O[C@H]1[C@H](O[C@@H]2[C@@H](C)[C@H](O[C@H]3C[C@@](C)(OC)[C@@H](O)[C@H](C)O3)[C@@H](C)C(=O)O[C@H](CC)[C@@](C)(O)[C@H](O)[C@@H](C)C(=O)[C@H](C)C[C@@]2(C)O)O[C@H](C)C[C@@H]1N(C)C [ERYTHROMYCIN ETHYLSUCCINATE] .
Return: 0 mg/dL

Enquiry: Entry CN(C)CCCN1c2ccccc2CCc2ccccc21 has what DBIL?
Return: 0.02 mg/dL

###

Please provide measured Ret for the entries that follow.
species: Rattus norvegicus; experiment: Open TG-GATES - Regimen: Single; type: toxicity, organism-based, Sprague-Dawley; set-up: regimen Single, gender Male, age 6 weeks; conditions: in vivo, po, 300 mg/kg, 6 h, tissue Blood, route gavage, dose level Middle
Value expressed in %; do not type the unit.

Enquiry: So what does the record say about Ret for COc1ccc2[nH]c([S+]([O-])Cc3ncc(C)c(OC)c3C)nc2c1 (centres undefined) ?
Return: 6.5

Enquiry: Recorded Ret of CCOC(=O)CCC(=O)O[C@H]1[C@H](O[C@@H]2[C@@H](C)[C@H](O[C@H]3C[C@@](C)(OC)[C@@H](O)[C@H](C)O3)[C@@H](C)C(=O)O[C@H](CC)[C@@](C)(O)[C@H](O)[C@@H](C)C(=O)[C@H](C)C[C@@]2(C)O)O[C@H](C)C[C@@H]1N(C)C [ERYTHROMYCIN ETHYLSUCCINATE] , please.
Return: 8.7

Enquiry: I am curious: what Ret value has been reported for NC(N)=Nc1nc(CSCCC(N)=NS(N)(=O)=O)cs1 ?
Return: 7.4

Enquiry: What does the record list as Ret for COC1=CC(=O)C[C@@H](C)[C@]12Oc1c(Cl)c(OC)cc(OC)c1C2=O ?
Return: 7.9

###

organism: Rattus norvegicus; assay: Open TG-GATES - Regimen: Single; format: toxicity, organism-based, Sprague-Dawley; parameters: regimen Single, gender Male, age 6 weeks; settings: in vivo, po, 1000 mg/kg, 9 h, tissue Kidney, route gavage, dose level High
Consider the following compounds; for each one, report its KIDNEY_TOTAL.
Please respond with the number in g and leave the unit unwritten.

Enquiry: Consider the compound NC(N)=Nc1nc(CSCCC(N)=NS(N)(=O)=O)cs1 and give its measured KIDNEY_TOTAL.
Return: 1.9

Enquiry: Form field: reported KIDNEY_TOTAL of COc1ccc2[nH]c([S+]([O-])Cc3ncc(C)c(OC)c3C)nc2c1 (stereo not given)
Return: 1.9

Enquiry: Give the measured KIDNEY_TOTAL of CCOC(=O)CCC(=O)O[C@H]1[C@H](O[C@@H]2[C@@H](C)[C@H](O[C@H]3C[C@@](C)(OC)[C@@H](O)[C@H](C)O3)[C@@H](C)C(=O)O[C@H](CC)[C@@](C)(O)[C@H](O)[C@@H](C)C(=O)[C@H](C)C[C@@]2(C)O)O[C@H](C)C[C@@H]1N(C)C [ERYTHROMYCIN ETHYLSUCCINATE] .
Return: 2

Enquiry: Return reported KIDNEY_TOTAL; argument: COC1=CC(=O)C[C@@H](C)[C@]12Oc1c(Cl)c(OC)cc(OC)c1C2=O
Return: 1.9

Enquiry: Tell me the measured KIDNEY_TOTAL of CC(C)OC(=O)C(C)(C)Oc1ccc(C(=O)c2ccc(Cl)cc2)cc1 [FENOFIBRATE] , please.
Return: 1.6

###

Provide the recorded RALB for the entries that follow.
organism: Rattus norvegicus; experiment: Open TG-GATES - Regimen: Daily Repeat; type: toxicity, organism-based, Sprague-Dawley; parameters: regimen Daily Repeat, gender Male, age 6 weeks; details: in vivo, po, 300 mg/kg, […], tissue Plasma, route gavage, dose level Middle, time 7 day
Dear colleague, please return just the value in g/dL, with no unit written.

Enquiry: Reported RALB for CCOc1ccc(NC(=O)CC(C)O)cc1 (stereo not given) [BUCETIN] : what is it?
Return: 2.7

Enquiry: Would you mind telling me what RALB value was observed for COC1=CC(=O)C[C@@H](C)[C@]12Oc1c(Cl)c(OC)cc(OC)c1C2=O [GRISEOFULVIN] ?
Return: 3.4

Enquiry: For COc1ccc2[nH]c([S+]([O-])Cc3ncc(C)c(OC)c3C)nc2c1 (stereo not given) [OMEPRAZOLE] , what is its reported RALB?
Return: 3.4

Enquiry: Form field: reported RALB of CCOC(=O)CCC(=O)O[C@H]1[C@H](O[C@@H]2[C@@H](C)[C@H](O[C@H]3C[C@@](C)(OC)[C@@H](O)[C@H](C)O3)[C@@H](C)C(=O)O[C@H](CC)[C@@](C)(O)[C@H](O)[C@@H](C)C(=O)[C@H](C)C[C@@]2(C)O)O[C@H](C)C[C@@H]1N(C)C [ERYTHROMYCIN ETHYLSUCCINATE]
Return: 3

Enquiry: Value lookup for RALB; key = NC(N)=Nc1nc(CSCCC(N)=NS(N)(=O)=O)cs1 [FAMOTIDINE]
Return: 3.4

###

Hi there, I'd appreciate the recorded TC for every entry that follows.
species: Rattus norvegicus; assay: Open TG-GATES - Regimen: Daily Repeat; format: toxicity, organism-based, Sprague-Dawley; set-up: regimen Daily Repeat, gender Male, age 6 weeks; conditions: in vivo, po, 100 mg/kg, […], tissue Plasma, route gavage, dose level Low, time 7 day
Field: numeric (mg/dL). Do not append units.

Enquiry: For NC(N)=Nc1nc(CSCCC(N)=NS(N)(=O)=O)cs1 , what is its reported TC?
Return: 78.6

Enquiry: Give its TC value. Item: COc1ccc2[nH]c([S+]([O-])Cc3ncc(C)c(OC)c3C)nc2c1 (stereo not given)
Return: 77.8

Enquiry: Returns the measured TC for the input compound. Input: CCOC(=O)CCC(=O)O[C@H]1[C@H](O[C@@H]2[C@@H](C)[C@H](O[C@H]3C[C@@](C)(OC)[C@@H](O)[C@H](C)O3)[C@@H](C)C(=O)O[C@H](CC)[C@@](C)(O)[C@H](O)[C@@H](C)C(=O)[C@H](C)C[C@@]2(C)O)O[C@H](C)C[C@@H]1N(C)C [ERYTHROMYCIN ETHYLSUCCINATE]
Return: 68.6

Enquiry: Given the entry COC1=CC(=O)C[C@@H](C)[C@]12Oc1c(Cl)c(OC)cc(OC)c1C2=O , report its measured TC.
Return: 75.4

Enquiry: Query: TC; subject: CCOc1ccc(NC(=O)CC(C)O)cc1 (stereo not given)
Return: 80.6
